test system: MDA-MB-231; experiment: NCI tumour cell line growth inhibition, 48 h
Calls of active or inactive are those of the source. Cut-off read from the data, not from the text of the source: active = GI50 up to about 1.1 µM and inactive = higher. Numbered stars: 1 amine (or outer) side, 2 acyl side, 3 side chain; on linkers, the order of the positions; unused ones are H or OH. Bridge positions count the residues as written; N and C are the ends. Square brackets hold non-standard residues; d marks the D form. Residues, ends and D or L forms follow the SMILES beside them. Peptide text beside a SMILES is read from it. I, II: the chains in the order shown. *: point of attachment. Actinocin(9to1) = Cc1c2oc3c(C)ccc(C(=O)[*:1])c3nc-2c(C(=O)[*:2])c(N)c1=O; NMeH = CN[CH](Cc1c[nH]cn1)C(=O)O; Cbz = O=C(OCc1ccccc1)*; Sar = CNCC(=O)O
Classes used: active, inactive

>>> group_label("Fc1ccc(C2(CCCN3CCc4[nH]c5cc(F)ccc5c4C3)OCCO2)cc1")
"inactive"
>>> group_label("FC1(F)ON2CCc3ccccc3C2[C@H]1c1ccccc1 (some centres undefined)")
"inactive"
>>> group_label("CC(C)(C)OC(=O)N(CCCN)CCCCN")
"active"
>>> group_label("Cc1sc2c(c1C)/C(=N\\O)c1cccn1-2")
"inactive"
>>> group_label("O=c1cc(NNc2cccc3ccccc23)[nH]c(=O)[nH]1")
"inactive"
>>> group_label("COC(=O)c1cn(CCCCO)nn1")
"inactive"
>>> group_label("O=S1(=O)CS(=O)(=O)OCCCO1")
"inactive"
>>> group_label("C[N+]12C=CC=C1C(N1CCCC1)c1scc(-c3ccc(Br)cc3)c12 (centres undefined)")
"inactive"
>>> group_label("Cc1ccc(/N=C/C=C(\\Nc2ccc(C)cc2)c2ccc3ccccc3c2)cc1")
"active"
>>> group_label("C1=C\\CCCCN2C[C@H]3CCCC/C=C\\CCCCN4CC[C@@H]([C@H](CCCCCC/1)C4)[C@H](C3)C2")
"active"
>>> group_label("O=c1[nH]c2ccccc2c2oc(-c3ccccc3)nc12")
"inactive"
>>> group_label("C=C1C(=O)C=C[C@]2(C)CC[C@H]3C(=C)C(=O)O[C@@H]3[C@@H]12")
"inactive"
>>> group_label("O=C1NC(N2CCCCC2)=N/C1=C\\c1ccccc1O")
"inactive"
>>> group_label("COC(=O)[C@@H]1C[C@H]([Se]c2ccccc2)CN1C(=O)OCc1ccccc1")
"inactive"
>>> group_label("CCC1=C(C)C(=O)N/C1=C\\c1[nH]c(C)c([C@H](C)CCN)c1C")
"inactive"
>>> group_label("C/C=C\\C(C)=C/C(C)C(=O)CC(O)CC1CC(=O)NC(=O)C1 (centres undefined)")
"inactive"
>>> group_label("c1coc(C2=Nc3cccc4cccc(c34)N2)c1")
"inactive"
>>> group_label("Cc1ccc(C(CCO)CCO)nc1")
"inactive"
>>> group_label("Cc1csc2[n+]1C(=O)/C(=C\\c1ccc([N+](=O)[O-])cc1)S2")
"inactive"
>>> group_label("COc1ccc(-c2c3c(cc4cc5c(cc24)OCO5)C(=O)OC3)cc1OC")
"inactive"
>>> group_label("COc1cc(/C=C/C(=O)N[C@@H]2C(=O)N3[C@@H]2SC(C)(C)[C@@H]3C(=O)O)cc(OC)c1OC")
"inactive"
>>> group_label("CC12CCC(/C(=N/c3ccc([N+](=O)[O-])cc3)C1=O)C2(C)C (centres undefined)")
"inactive"
>>> group_label("C=C(C(=O)OC)[C@H]1CC/C(C)=C/CC[C@@](C)(O)C=CC[C@@]2(C)O[C@@H]2C1")
"inactive"
>>> group_label("O=C1CC2(CCNCC2)C(=O)N1N1CCCC1")
"inactive"
>>> group_label("S=C(N/N=C(/c1ccccc1)c1ccccn1)N1CCCCC1")
"active"
>>> group_label("CCOC(=O)O/N=C1/C(=C2/C(=O)Nc3ccccc32)Nc2ccccc21")
"inactive"
>>> group_label("CCOC(=O)CCC(NC(=O)OCc1ccccc1)C(=O)NC(CCC(=O)OCC)C(=O)OCC (centres undefined) (Cbz-Glu(OEt)-Glu(OEt)-OEt; configuration not given here)")
"inactive"
>>> group_label("C#C[C@]1(O)[C@@H](CO)O[C@@H](n2ccc(=O)[nH]c2=O)[C@@H]1O")
"active"
>>> group_label("CC(C)(C)OC(=O)NC(Cc1ccc(OCc2ccccc2)cn1)C(=O)N1CCCCC1 (centres undefined)")
"inactive"
>>> group_label("CCOC(=O)C1=CC(C)(C(=O)OCC)Nc2c(nc(N)[nH]c2=O)N1 (centres undefined)")
"inactive"
>>> group_label("Cc1c2oc3c(C)ccc(C(=O)NC4C(=O)NC(C(C)C)C(=O)N5CCCC5C(=O)N(C)CC(=O)N(C)C(Cc5cnc[nH]5)C(=O)OC4C)c3nc-2c(C(=O)NC2C(=O)NC(C(C)C)C(=O)N3CCCC3C(=O)N(C)CC(=O)N(C)C(Cc3cnc[nH]3)C(=O)OC2C)c(N)c1=O (centres undefined) (I: TVP[Sar][NMeH] / II: TVP[Sar][NMeH]; ester I:1-I:C, II:1-II:C; linker I:N-II:N via Actinocin(9to1); configuration not given here)")
"inactive"
>>> group_label("COc1cc(CCNC2=CC(=O)c3cccnc3C2=O)ccc1O")
"active"
>>> group_label("CN1C(Cl)=NS(=O)(=O)c2ccccc21")
"inactive"
>>> group_label("O=C1C[C@H](Sc2ccccc2)C2(OCCO2)[C@H]2ON3CCC[C@@H]3[C@@H]12")
"inactive"
>>> group_label("C=CCCON(C(=O)OC(C)(C)C)C(C)(C)C")
"inactive"
>>> group_label("O=[N+]([O-])c1ccc(Sc2c3ccccc3nc3ccccc23)nc1")
"inactive"
>>> group_label("CC(C)Cc1cc2c(cc1O)CCC1C2CC[C@@]2(C)C1CC[C@@H]2O (some centres undefined)")
"inactive"
>>> group_label("COC(=O)c1ccccc1C1CN=NC12Cc1ccc3ccccc3c1C2=O (centres undefined)")
"inactive"
>>> group_label("COc1cc(CNC(=O)CCCCCCCCCCSSCCCCCCCCCCC(=O)NCc2ccc(O)c(OC)c2)ccc1O")
"inactive"

----------
test system: HCC 2998; assay: NCI tumour cell line growth inhibition, 48 h
Calls of active or inactive are those of the source. Cut-off read from the data, not from the text of the source: active = GI50 up to about 1.1 µM and inactive = higher.
Classes used: active, inactive

>>> group_label("COc1cc(CCNC2=CC(=O)c3cccnc3C2=O)ccc1O")
"inactive"
>>> group_label("O=C1C=C(Nc2cc(Cl)ccc2Cl)c2ccccc2C1=O")
"inactive"
>>> group_label("CN(C)C(=S)/N=c1\\ssc(=S)n1Cc1ccccc1")
"active"
>>> group_label("CC(=O)c1ccccc1NC(=O)C(=O)C(C(=O)c1ccccc1-c1ccccc1)C1OC(=O)c2ccccc21 (stereo not given)")
"inactive"
>>> group_label("Cc1cc(NCCCCCCCNc2cc(C)nc3cc([N+](=O)[O-])ccc23)c2ccc([N+](=O)[O-])cc2n1")
"inactive"

----------
tested on: SNB-19; experiment: NCI tumour cell line growth inhibition, 48 h
Active and inactive are the calls of the source. Rule as the data show it: active = GI50 up to about 1.1 µM and inactive = higher.
Classes used: t for active, f for inactive

>>> group_label("Cc1ccc(Cn2c(C)nc3c2C(=O)c2ccccc2C3=O)cc1")
"f"
>>> group_label("O=C(/C=C/c1ccc2c(c1)OCO2)NCc1ccco1")
"f"
>>> group_label("COC(=O)C1CCc2nnc(-c3cccnc3)n21 (stereo not drawn)")
"f"
>>> group_label("N[C@@H](Cc1ccc2oc3cc(=O)c4ccccc4c-3nc2c1)C(=O)O")
"f"
>>> group_label("Cc1ccc(N)c(S)c1")
"f"
>>> group_label("CC1=C2C(=O)c3ccccc3C(=O)[C@H]2[C@H]2CCO[C@H]2O1")
"f"
>>> group_label("CNC1Cc2c[nH]c3cccc(c23)C12C=C(C)C(=O)O2 (stereo not drawn)")
"f"
>>> group_label("C/C=C/[C@@H]1[C@H]2C(=O)[C@]3(Cl)[C@@H](/C=C/C)[C@@H]3C(=O)[C@@]12Cl")
"f"
>>> group_label("O=C(CN1CCCCC1)CC(O)(C(F)(F)F)C(F)(F)F")
"f"
>>> group_label("N#CNc1nc(C(=O)Nc2ccc(Cl)cc2)cc(-c2ccccc2)n1")
"f"
>>> group_label("CCOC(=O)c1c(N=C(S)Nc2ccc(Cl)cc2)sc2c1CCN(C)C2")
"f"
>>> group_label("CCOc1ccccc1/N=N/c1ccc2oc(=O)c(C(C)=O)cc2c1")
"f"
>>> group_label("O=C(c1ccc2ccccc2c1)C1S(=O)(=O)OCCOS1(=O)=O")
"f"
>>> group_label("COc1ccc2c(c1)N=C1CSC(c3cc([N+](=O)[O-])ccc3Cl)N1C2 (stereo not drawn)")
"f"
>>> group_label("Cc1ccccc1C1CC(=O)CC(c2ccccc2C)C12C(=O)NC(=S)NC2=O (stereo not drawn)")
"f"
>>> group_label("COc1cc(C2=C(c3cc(OC)c4ccccc4c3OC)C(=O)c3ccccc3C2=O)c(OC)c2ccccc12")
"f"
>>> group_label("COc1cc(CNC(=O)CCCCCCCCCCSSCCCCCCCCCCC(=O)NCc2ccc(O)c(OC)c2)ccc1O")
"f"
>>> group_label("CC1(C)OCC(COC(=O)C=[N+]=[N-])O1 (stereo not drawn)")
"f"
>>> group_label("COc1c(C)c(C/C=C(\\C)CCCCO)c(OC)c(OC)c1OC")
"f"
>>> group_label("NC(Cc1cc(I)c(Oc2ccc(O)c(I)c2)c(I)c1)C(=O)O (stereo not drawn)")
"f"
>>> group_label("COc1cc(Nc2nc3cc(C(F)(F)F)ccc3n3cccc23)cc(OC)c1OC")
"f"
>>> group_label("Cc1n[nH]c(=O)n1/N=C/c1ccco1")
"f"
>>> group_label("COP(=O)(OC)C(N)CCSC (stereo not drawn)")
"f"
>>> group_label("COc1cc2c(cc1OC)C13CC[N+]4(C)CC5=CCOC6CC(=O)N2C1C6C5CC34[O-] (stereo not drawn)")
"f"
>>> group_label("CN(C(=O)c1ccc([N+](=O)[O-])cc1)c1ccccc1")
"f"
>>> group_label("Cc1ccc(S(=O)(=O)NC(=O)C2C(=O)CC3(CCCCC3)CC2=O)cc1")
"f"
>>> group_label("COc1ccccc1-n1c(C)nc2ccccc2c1=O")
"f"
>>> group_label("O=C1/C(=C/c2ccccc2)CCC/C1=C\\c1ccc(O)c(CN2CCCCC2)c1")
"f"
>>> group_label("Cc1ccc(/C=C2\\CN(C)CC3C(c4ccc(C)cc4)=C(C#N)C(=O)NC23)cc1 (stereo not drawn)")
"f"
>>> group_label("CN(C)CC(/C(Cc1ccccc1)=N\\NC(=S)NN)c1ccccc1 (stereo not drawn)")
"f"
>>> group_label("C=C(C1=CC(=O)C(C)(C)O1)[C@@H]1CC=C([C@@H]2CC[C@H]3[C@@]2(C)CC[C@H]2C(C)(C)C(=O)[C@H](OC(=O)CC(C)(O)CC(=O)O)C[C@]32C)[C@H](O)O1 (stereo partly drawn)")
"f"
>>> group_label("COc1ccc2nc(-c3cccs3)cc(C(O)CN3CCSCC3)c2c1 (stereo not drawn)")
"f"
>>> group_label("CC(=O)c1nc2ccccc2n1CC(=O)c1ccc([N+](=O)[O-])cc1")
"f"
>>> group_label("C#CCOC(=O)C=[N+]=[N-]")
"f"
>>> group_label("Cc1ccc(C(CCO)CCO)nc1")
"f"
>>> group_label("NCCCNc1ccc2c(c1)[n+]([O-])c1ccccc1[n+]2[O-]")
"f"
>>> group_label("Nc1ccc(O)c2c1C(=O)c1c(N)ccc(O)c1C2=O")
"f"
>>> group_label("COC(=O)CC1C=CC(C)(OC)OO1 (stereo not drawn)")
"f"
>>> group_label("C#C[C@]1(O)[C@@H](CO)O[C@@H](n2ccc(=O)[nH]c2=O)[C@@H]1O")
"t"
>>> group_label("O=c1[nH]nc(Cc2ccc(Cl)cc2)n1/N=C\\c1ccc(/C=N/n2c(Cc3ccc(Cl)cc3)n[nH]c2=O)cc1")
"f"
>>> group_label("CN(C)CCCCN1c2ccccc2Sc2cc(N=[N+]=[N-])ccc21")
"f"
>>> group_label("CC12CCC(/C(=N/c3ccc([N+](=O)[O-])cc3)C1=O)C2(C)C (stereo not drawn)")
"f"
>>> group_label("CC(=O)C1=NN(c2ccccc2)C2(S1)SC(c1ccccc1)(c1ccccc1)c1ccccc12 (stereo not drawn)")
"f"
